Exercise: state measured IC50 for each of the compounds provided.
Tested on: Herpes simplex type 1 virus (HFEM strain)
Assay: Plaque reduction test in virus-infected Vero cells
Type: cell-based
Conditions: Human alphaherpesvirus 1, 96 h, concentration causing 50% reduction in number of virus plaques, HSV-1 HFEM strain, 4 days at 37°, read-out: PDD50 (the source's name)
Where a name gives a salt, the structure may show the parent alone.
State the answer as a number, implicitly in µg/mL.

Query string: Item COC(=O)OC[C@H]1O[C@@H](n2cc(/C=C/Br)c(=O)[nH]c2=O)C[C@@H]1OC(=O)OC with Herpes simplex type 1 virus (HFEM strain) - IC50?
Result string: 5.3

Query string: Also need CCOC(=O)OC[C@H]1O[C@@H](n2cc(/C=C/Br)c(=O)[nH]c2=O)C[C@@H]1O , thanks.
Result string: 0.28

Query string: Also need O=C(OC[C@H]1O[C@@H](n2cc(/C=C/Br)c(=O)[nH]c2=O)C[C@@H]1O)Oc1ccc([N+](=O)[O-])cc1 , thanks.
Result string: 0.6

Query string: Also need CCCCC(=O)O[C@H]1C[C@H](n2cc(/C=C/Br)c(=O)[nH]c2=O)O[C@@H]1COC(=O)OCC , thanks.
Result string: 1.5

Query string: Also need CCCCC(=O)O[C@H]1C[C@H](n2cc(/C=C/Br)c(=O)n(C(=O)CCCC)c2=O)O[C@@H]1COC(=O)OCC , thanks.
Result string: 1.7

Query string: Also need C=CCOC(=O)OC[C@H]1O[C@@H](n2cc(/C=C/Br)c(=O)[nH]c2=O)C[C@@H]1O , thanks.
Result string: 0.72

Query string: Also need CCOC(=O)O[C@H]1C[C@H](n2cc(/C=C/Br)c(=O)[nH]c2=O)O[C@@H]1CO , thanks.
Result string: 0.43

Query string: Also need COC(=O)OC[C@H]1O[C@@H](n2cc(/C=C/Br)c(=O)[nH]c2=O)C[C@@H]1O , thanks.
Result string: 1.5

Query string: Also need CCCOC(=O)OC[C@H]1O[C@@H](n2cc(/C=C/Br)c(=O)[nH]c2=O)C[C@@H]1O , thanks.
Result string: 0.39

Query string: Also need CC(C)COC(=O)OC[C@H]1O[C@@H](n2cc(/C=C/Br)c(=O)[nH]c2=O)C[C@@H]1O , thanks.
Result string: 0.22

Query string: Also need CC(C)(C)OC(=O)O[C@H]1C[C@H](n2cc(/C=C/Br)c(=O)[nH]c2=O)O[C@@H]1CO , thanks.
Result string: 0.18

Query string: Also need COC(=O)O[C@H]1C[C@H](n2cc(/C=C/Br)c(=O)[nH]c2=O)O[C@@H]1CO , thanks.
Result string: 0.74

Query string: Also need C=Cc1cn([C@H]2C[C@H](O)[C@@H](COC(=O)OCC)O2)c(=O)[nH]c1=O , thanks.
Result string: 1.5

Query string: Also need O=C(OCc1ccccc1)OC[C@H]1O[C@@H](n2cc(/C=C/Br)c(=O)[nH]c2=O)C[C@@H]1O , thanks.
Result string: 0.05

Query string: Also need CCCCOC(=O)OC[C@H]1O[C@@H](n2cc(/C=C/Br)c(=O)[nH]c2=O)C[C@@H]1O , thanks.
Result string: 0.25

Query string: Also need CCOC(=O)n1c(=O)c(/C=C/Br)cn([C@H]2C[C@H](O)[C@@H](CO)O2)c1=O , thanks.
Result string: 5

Query string: Also need CCCCC(=O)n1c(=O)c(/C=C/Br)cn([C@H]2C[C@H](O)[C@@H](COC(=O)OCC)O2)c1=O , thanks.
Result string: 3.3

Query string: Also need CC(C)COC(=O)OC[C@H]1O[C@@H](n2cc(/C=C/Br)c(=O)[nH]c2=O)C[C@@H]1OC(=O)OCC(C)C , thanks.
Result string: 0.44

Query string: Also need O=C(OC[C@H]1O[C@@H](n2cc(/C=C/Br)c(=O)[nH]c2=O)C[C@@H]1O)Oc1ccccc1 , thanks.
Result string: 0.18

Query string: Also need CC(C)(C)OC(=O)OC[C@H]1O[C@@H](n2cc(/C=C/Br)c(=O)[nH]c2=O)C[C@@H]1OC(=O)OC(C)(C)C , thanks.
Result string: 2

Query string: Also need CC(C)OC(=O)OC[C@H]1O[C@@H](n2cc(/C=C/Br)c(=O)[nH]c2=O)C[C@@H]1O , thanks.
Result string: 0.88

Query string: Also need CC(C)(C)OC(=O)OC[C@H]1O[C@@H](n2cc(/C=C/Br)c(=O)[nH]c2=O)C[C@@H]1O , thanks.
Result string: 0.28

Query string: Also need CCOC(=O)OC[C@H]1O[C@@H](n2cc(/C=C/Br)c(=O)[nH]c2=O)C[C@@H]1OP(=O)(O)O [Example 13, Monosodium Salt] , thanks.
Result string: 3.8

Query string: Also need O=C(OCCO)OC[C@H]1O[C@@H](n2cc(/C=C/Br)c(=O)[nH]c2=O)C[C@@H]1O , thanks.
Result string: 0.76

Query string: Also need CCOC(=O)OC[C@H]1O[C@@H](n2cc(/C=C/Br)c(=O)[nH]c2=O)C[C@@H]1OC(=O)OCC , thanks.
Result string: 1.1
